Data origin: patent US6268478A

RBI (Relative Binding Index) listing for selected compounds.
- experimental-system: IDBP (Saguinus oedipus, UniProt Q9N1U2)
- Sequence (Q9N1U2 whole entry): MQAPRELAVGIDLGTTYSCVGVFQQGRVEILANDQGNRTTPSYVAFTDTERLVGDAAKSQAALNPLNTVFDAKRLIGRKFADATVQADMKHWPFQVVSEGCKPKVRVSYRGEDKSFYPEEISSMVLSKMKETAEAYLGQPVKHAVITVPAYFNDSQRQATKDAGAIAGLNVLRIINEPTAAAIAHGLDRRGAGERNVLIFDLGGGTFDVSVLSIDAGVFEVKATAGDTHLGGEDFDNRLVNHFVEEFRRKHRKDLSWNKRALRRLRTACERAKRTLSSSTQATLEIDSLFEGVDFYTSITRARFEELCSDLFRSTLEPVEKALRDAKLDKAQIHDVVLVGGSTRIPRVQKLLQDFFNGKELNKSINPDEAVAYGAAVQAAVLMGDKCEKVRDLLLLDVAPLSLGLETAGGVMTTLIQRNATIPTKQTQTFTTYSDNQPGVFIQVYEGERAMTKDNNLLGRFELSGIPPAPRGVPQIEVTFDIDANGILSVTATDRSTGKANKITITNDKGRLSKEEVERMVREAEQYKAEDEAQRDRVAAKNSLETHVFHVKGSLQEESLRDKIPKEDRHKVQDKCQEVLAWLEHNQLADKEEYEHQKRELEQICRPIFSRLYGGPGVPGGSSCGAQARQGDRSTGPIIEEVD
- protocol-notes: Competitive displacement of [3H]25-OHD3 from IDBP in unfractionated 100,000×g supernatant extracts of B95-8 cells (competitive protein binding assay, dextran-coated charcoal)
- Design: post-nuclear 100,000xg supernatant of B95-8 marmoset lymphoblasts and partly purified column fractions; species or system Callithrix jacchus (common marmoset)
- experimental-parameters: relative ability of maximally effective concentration to displace [3H]25-OHD3; 25-OHD3 assigned 100; unfractionated 100,000×g supernatant of B95-8 cells

Answered examples (2):
compound | endpoint-label | value-reported
CC(=O)[C@H]1CC[C@H]2[C@@H]3CCC4=CC(=O)CC[C@]4(C)[C@H]3CC[C@]12C [Progesterone] | RBI (Relative Binding Index) | 19
C[C@]12CCC(=O)C=C1CC[C@@H]1[C@@H]2C(=O)C[C@@]2(C)[C@H]1CC[C@]2(O)C(=O)CO [Cortisone] | RBI (Relative Binding Index) | 0

Request: Fill blank: measured RBI (Relative Binding Index) of the compound CC#C[C@]1(O)CC[C@H]2[C@@H]3CCC4=CC(=O)CCC4=C3[C@@H](c3ccc(N(C)C)cc3)C[C@@]21C [RU486] is ____.
Response: 0

Request: Suppose we examine the compound CC(C)CCC[C@@H](C)[C@H]1CC[C@H]2[C@@H]3CC=C4C[C@@H](O)CC[C@]4(C)[C@H]3CC[C@]12C [Cholesterol] ; what RBI (Relative Binding Index) value has been reported?
Response: 0

Request: Can you look up the measured RBI (Relative Binding Index) of C[C@]12CC[C@H]3[C@@H](CCC4=CC(=O)CC[C@@]43C)[C@@H]1CC[C@@H]2C(=O)CO [Deoxycorticosterone (DOC), Deoxycorticosterone] for me?
Response: 0

Request: Find the recorded RBI (Relative Binding Index) belonging to C[C@]12CC[C@H]3[C@@H](CCC4=CC(=O)CC[C@@]43C)[C@@H]1CC[C@@H]2O [Testosterone] and report it.
Response: 30

Request: What value of measured RBI (Relative Binding Index) is listed for C[C@]12C[C@H](O)[C@H]3[C@@H](CCC4=CC(=O)CC[C@@]43C)[C@@H]1CC[C@@H]2C(=O)CO [Corticosterone (B), Corticosterone] ?
Response: 0

Request: Could you share which RBI (Relative Binding Index) value was measured for C[C@]12CCC(=O)C=C1CC[C@@H]1[C@@H]2CC[C@]2(C)C(=O)CC[C@@H]12 [Androstendione] ?
Response: 0

----------
Recorded RBI (Relative Binding Index) for the following compounds
- experimental-system: IDBP (Saguinus oedipus)
- protocol-notes: Competitive displacement of [3H]25-OHD3 from IDBP in unfractionated 100,000×g supernatant extracts of B95-8 cells (competitive protein binding assay, dextran-coated charcoal)
- Set-up: post-nuclear 100,000xg supernatant of B95-8 marmoset lymphoblasts and partly purified column fractions; species or system Callithrix jacchus (common marmoset)
- experimental-parameters: relative ability of maximally effective concentration to displace [3H]25-OHD3; 25-OHD3 assigned 100; unfractionated 100,000×g supernatant of B95-8 cells
Output: the number by itself.

Examples with their reported RBI (Relative Binding Index) follow.
compound | experimental-system | RBI (Relative Binding Index)
C[C@]12CC[C@@H]3c4ccc(O)cc4CC[C@H]3[C@@H]1CC[C@@H]2O [17β-Estradiol] | IDBP (Saguinus oedipus) | 33
CCCCC[C@H](O)/C=C/[C@H]1[C@H](O)CC(=O)[C@@H]1C/C=C\CCCC(=O)O [PGE2] | IDBP (Saguinus oedipus) | 0
C=C1/C(=C\C=C2/CCC[C@]3(C)[C@@H]([C@H](C)/C=C/[C@H](C)C(C)(C)O)CC[C@@H]23)C[C@@H](O)C[C@@H]1O [1,25-(OH)2D2, 1,25-dihydroxyvitamin D2] | IDBP (Saguinus oedipus) | 35
C=C1CC[C@H](O)C/C1=C/C=C1\CCC[C@]2(C)[C@@H]([C@H](C)CCCC(C)(O)CO)CC[C@@H]12 (stereo partly shown) [25,26-(OH)2D3] | IDBP (Saguinus oedipus) | 70
C[C@]12CC[C@H](OS(=O)(=O)O)CC1=CC[C@@H]1[C@@H]2CC[C@]2(C)C(=O)CC[C@@H]12 [DHEAS] | IDBP (Saguinus oedipus) | 0
C[C@]12CC[C@H](O)CC1=CC[C@@H]1[C@@H]2CC[C@]2(C)C(=O)CC[C@@H]12 [DHEA] | IDBP (Saguinus oedipus) | 0
C=C1/C(=C\C=C2/CCC[C@]3(C)[C@@H]([C@@H](C)OCCCC(O)(CC)CC)CC[C@@H]23)C[C@@H](O)C[C@@H]1O [KH1060] | IDBP (Saguinus oedipus) | 0
C=C1CC[C@H](O)C/C1=C/C=C1\CCC[C@]2(C)[C@@H]([C@H](C)/C=C/[C@H](C)C(C)C)CC[C@@H]12 [Vitamin D2, ergocalciferol] | IDBP (Saguinus oedipus) | 0
C=C1/C(=C\C=C2/CCC[C@]3(C)[C@@H]([C@H](C)CCC(O)C(C)(C)O)CC[C@@H]23)C[C@@H](O)CC1O (stereo partly shown) [1,24,25-(OH)3D3] | IDBP (Saguinus oedipus) | 36
C=C1CC[C@H](O)C/C1=C/C=C1\CCC[C@]2(C)[C@@H]([C@H](C)CCC(O)C(C)(C)O)CC[C@@H]12 (stereo partly shown) [24,25-(OH)2D3] | IDBP (Saguinus oedipus) | 72

Request: Recorded RBI (Relative Binding Index) of CC(=O)[C@H]1CC[C@H]2[C@@H]3CC=C4C[C@@H](O)CC[C@]4(C)[C@H]3CC[C@]12C [Pregnenolone] , please.
Response: 0

Request: Tell me the measured RBI (Relative Binding Index) of CCCCC/C=C\C/C=C\C/C=C\C/C=C\CCCC(=O)O [Arachidonic acid] , please.
Response: 0

Request: Could you tell me which RBI (Relative Binding Index) is on file for CC(C)CCC[C@@H](C)[C@H]1CC[C@H]2C3=CC=C4C[C@@H](O)CC[C@]4(C)[C@H]3CC[C@]12C [7-Dehydrocholesterol] ?
Response: 0

Request: For the compound shown here, C=C1/C(=C\C=C2/CCC[C@]3(C)[C@@H]([C@H](C)CCCC(C)C)CC[C@@H]23)C[C@@H](O)C[C@@H]1O [1-OHD3] , give the reported RBI (Relative Binding Index).
Response: 0

Request: Given the compound CCCCC[C@H](O)/C=C/[C@@H]1[C@@H](C/C=C\CCCC(=O)O)[C@@H](O)C[C@H]1O [PGF2alpha] , what is its reported RBI (Relative Binding Index)?
Response: 0

Request: Fill blank: measured RBI (Relative Binding Index) of the compound CC(C)[C@@H](C)/C=C/[C@@H](C)[C@H]1CC[C@H]2/C(=C/C=C3\C[C@@H](O)CC[C@@H]3C)CCC[C@]12C [Dihydrotachysterol] is ____.
Response: 0

Request: Name the recorded RBI (Relative Binding Index) for C=C1CC[C@H](O)C/C1=C/C=C1\CCC[C@]2(C)[C@@H]([C@H](C)/C=C/[C@H](C)C(C)(C)O)CC[C@@H]12 [25-OHD2, 25-hydroxy vitamin D2] .
Response: 100

Request: GET /values?readout=RBI (Relative Binding Index)&item= CC1=C(/C=C/C(C)=C/C=C/C(C)=C/C(=O)O)C(C)(C)CCC1 [All-trans Retinoic acid]
Response: 0

Request: Requested field: RBI (Relative Binding Index). Item: CC/C(=C(\c1ccccc1)c1ccc(OCCN(C)C)cc1)c1ccccc1 [Tamoxifen]
Response: 0
